Parameter protein stability index: see the listing below.
- Method notes: protein stability index of a GFP-peptide fusion (yeast GPS) (PSI 1-4); higher = more stable; sorted into four equal gates, so the index is relative within each strain
- Measurement context: san1∆

Per the records, this sequence ( LIIDGQIIFGVVEKKTV [RPO21] ) has protein stability index equal to 1.2

Per the records, this sequence ( ILDNINHNGSALLIEVF [ITC1] ) has protein stability index equal to 1.14

Per the records, this sequence ( KPVMEVTSSFFYRGNYT [FAS1] ) has protein stability index equal to 1.91

Per the records, this sequence ( SPFFVLDEVDAALDITN [SMC1] ) has protein stability index equal to 2.63

Per the records, this sequence ( VKTPKKTKYILQRPTAT [CSN12] ) has protein stability index equal to 2.6

Per the records, this sequence ( IAEVGNKRWKVDIGGKQ [RRP4] ) has protein stability index equal to 3.22

Per the records, this sequence ( IADKTTYDKETITDLIE [SIR4] ) has protein stability index equal to 3.42

Per the records, this sequence ( EQEQQQQQIIKIRITLT [RPS20] ) has protein stability index equal to 3.03
